assay.target: estrogen receptor alpha (Homo sapiens, UniProt P03372)
Sequence (P03372 whole entry): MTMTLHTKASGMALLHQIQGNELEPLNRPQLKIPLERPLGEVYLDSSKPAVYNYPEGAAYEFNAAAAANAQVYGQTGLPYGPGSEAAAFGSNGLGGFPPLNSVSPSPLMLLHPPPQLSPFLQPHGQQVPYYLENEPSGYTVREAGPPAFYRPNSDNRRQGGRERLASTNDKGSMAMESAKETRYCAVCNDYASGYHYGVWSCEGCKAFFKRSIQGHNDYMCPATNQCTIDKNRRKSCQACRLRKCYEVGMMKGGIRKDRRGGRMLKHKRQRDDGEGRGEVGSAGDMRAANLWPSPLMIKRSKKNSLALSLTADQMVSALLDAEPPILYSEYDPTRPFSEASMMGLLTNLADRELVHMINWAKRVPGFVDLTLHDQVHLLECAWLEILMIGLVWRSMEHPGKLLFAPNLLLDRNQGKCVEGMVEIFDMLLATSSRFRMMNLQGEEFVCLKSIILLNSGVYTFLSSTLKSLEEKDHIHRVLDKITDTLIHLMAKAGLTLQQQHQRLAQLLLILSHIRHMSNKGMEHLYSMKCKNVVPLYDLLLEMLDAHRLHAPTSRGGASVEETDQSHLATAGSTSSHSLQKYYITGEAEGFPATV
experimental.protocol: Partial agonist activity at human ERalpha receptor expressed in human MCF7:D5L cells co-expressing ERE assessed as increase of estradiol-induced luciferase gene expression at 1 uM after 18 hrs relative to estradiol
Assay type: cell-based
test.conditions: read-out: Activity
endpoint: activity at 18 h, 1 µM (%)

> print(dat)
                            smiles.notation  result.value
1  CC(C)(C)c1cc(/C=C/C=C/c2cc(O)cc(O)c2)ccc1O            34
2       CC(C)(C)c1cc(/C=C/c2ccc(O)cc2)ccc1O            49

[I] CCC(CC)c1cc(/C=C/c2cc(O)cc(O)c2)ccc1O
[II] CCC(CC)c1cc(/C=C/C=C/c2cc(O)cc(O)c2)ccc1O
### Prompt Between I and II , whose recorded activity at 18 h, 1 µM is greater? Pick one; state its label.
### Response I

* * *

assay.target: Aryl hydrocarbon receptor (Mus musculus)
experimental.protocol: Activity at AhR expressed in mouse H1L1.1c2 cells co-expressing XRE assessed as increase of benzo[b]fluoranthene-induced luciferase gene expression at 1 uM after 72 hrs
endpoint: Activity (%)

Below: 3 molecules and their reported Activity.
> print(dat)
                                   molecule  endpoint  result.value
1     CCC(CC)c1cc(/C=C/c2cc(O)cc(O)c2)ccc1O  Activity           1.7
2       CC(C)(C)c1cc(/C=C/c2ccc(O)cc2)ccc1O  Activity           1.5
3  CCC(CC)c1cc(/C=C/C=C/c2cc(O)cc(O)c2)cc(C(CC)CC)c1O  Activity           2.2

[I] Oc1ccc(/C=C/c2cc(O)cc(O)c2)cc1 [RESVERATROL]
[II] CCC(CC)c1cc(/C=C/c2cc(O)cc(O)c2)cc(C(CC)CC)c1O
### Prompt Hey, between I and II which has a smaller measured Activity? Pick one; state its label.
### Response I
(I: 1.2%, II: 3%)

* * *

assay.target: Estrogen receptor beta (Homo sapiens)
Sequence (Q92731 whole entry): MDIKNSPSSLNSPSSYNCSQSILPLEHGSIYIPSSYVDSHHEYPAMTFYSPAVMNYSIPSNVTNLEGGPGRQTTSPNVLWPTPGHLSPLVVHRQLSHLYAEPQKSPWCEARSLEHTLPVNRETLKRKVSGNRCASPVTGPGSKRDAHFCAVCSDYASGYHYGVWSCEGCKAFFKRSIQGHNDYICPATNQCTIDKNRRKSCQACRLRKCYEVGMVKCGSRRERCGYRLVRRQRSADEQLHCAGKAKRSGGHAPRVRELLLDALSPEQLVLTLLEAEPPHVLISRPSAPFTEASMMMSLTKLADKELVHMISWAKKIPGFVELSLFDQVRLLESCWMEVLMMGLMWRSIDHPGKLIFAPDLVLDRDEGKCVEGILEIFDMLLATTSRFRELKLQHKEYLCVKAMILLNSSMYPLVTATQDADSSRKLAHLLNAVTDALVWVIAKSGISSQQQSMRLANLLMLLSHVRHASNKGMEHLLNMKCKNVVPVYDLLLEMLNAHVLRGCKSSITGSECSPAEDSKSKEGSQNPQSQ
experimental.protocol: Agonist activity at human ERbeta receptor expressed in human HEK293 cells co-expressing ERE assessed as increase of estradiol-induced luciferase gene expression at 1 uM after 18 hrs relative to estradiol
Format: cell-based
test.conditions: read-out: Activity
endpoint: activity at 18 h, 1 µM (%)

> print(dat)
                            smiles.notation                endpoint  result.value
1  CC(C)(C)c1cc(/C=C/C=C/c2cc(O)cc(O)c2)ccc1O  activity at 18 h, 1 µM            18

[I] Oc1ccc(/C=C/C=C/c2cc(O)cc(O)c2)cc1
[II] CC(C)(C)c1cc(/C=C/c2ccc(O)cc2)ccc1O
### Prompt Hey, between I and II which has a smaller measured activity at 18 h, 1 µM? Pick one; state its label.
### Response II

* * *

experimental.protocol: Cytotoxicity against mouse HT22 cells assessed as cell viability at 1 uM after 3 days by LDH release assay relative to control
Format: cell-based, HT-22
test.conditions: read-out: Activity
endpoint: percent cytotoxicity (LDH release relative to control) at 72 h, 1 µM (%)
// return numeric value only (unit: %, not printed)

Below: 10 compounds and their reported percent cytotoxicity (LDH release relative to control) at 72 h, 1 µM.
> print(dat)
                             smiles.notation  result.value
 1            Oc1ccc(/C=C/c2cc(O)cc(O)c2)cc1             4
 2  CCC(CC)c1cc(/C=C/C=C/c2cc(O)cc(O)c2)cc(C(CC)CC)c1O            -6
 3  CC(C)(C)c1cc(/C=C/C=C/c2cc(O)cc(O)c2)ccc1O          -8.7
 4        Oc1ccc(/C=C/C=C/c2cc(O)cc(O)c2)cc1             8
 5  CC(C)(C)c1cc(/C=C/C=C/c2cc(O)cc(O)c2)cc(C(C)(C)C)c1O          -5.3
 6    CC(C)(C)c1cc(/C=C/c2cc(O)cc(O)c2)ccc1O            -6
 7  CCC(CC)c1cc(/C=C/c2cc(O)cc(O)c2)cc(C(CC)CC)c1O          -6.7
 8     CCC(CC)c1cc(/C=C/c2cc(O)cc(O)c2)ccc1O            -1
 9  CC(C)(C)c1cc(/C=C/c2cc(O)cc(O)c2)cc(C(C)(C)C)c1O          -6.7
10  CCC(CC)c1cc(/C=C/C=C/c2cc(O)cc(O)c2)ccc1O            -5

### Prompt Bench note: what percent cytotoxicity (LDH release relative to control) at 72 h, 1 µM did CC(C)(C)c1cc(/C=C/c2cc(C(C)(C)C)c(O)c(C(C)(C)C)c2)cc(C(C)(C)C)c1O show?
### Response 1.3

### Prompt Bench note: what percent cytotoxicity (LDH release relative to control) at 72 h, 1 µM did CC(C)(C)c1cc(/C=C/c2ccc(O)cc2)ccc1O show?
### Response -5.3
